Exercise: for every item that follows, state its recorded z-score.
- assay-overview: osmotic lysis modulators in infected erythrocytes, primary screen, PSAC antagonist project, cell-based, P. falciparum Indochina, OD700, 3 h (AID 1156)
- test-conditions: higher = more signal, called active from +8 up or from −8 down
Respond using a number only.

stdin: Consider the molecule CCOC(=O)[C@H](CC(C)C)NC(=O)CCC1CC(OC(=O)NCc2ccc3c(c2)OCO3)CC2(CCCC(COC(=O)NCC(c3ccccc3)c3ccccc3)O2)O1 (stereo not given in full) . State its measured z-score.
stdout: -0.532

stdin: Consider the molecule `COC(=O)CC=C[C@@H](C)[C@@H](C=NOC[C@@H](O)[C@H]1O[C@@H]2OC(C)(C)O[C@@H]2[C@H]1O)NS(=O)(=O)c1ccc(C)cc1` . State its measured z-score.
stdout: -0.268

stdin: Consider the molecule `CC(CCN1CCCc2nc(C)c(C)cc21)=NO[C@@H](C)c1cc(-c2c(C)cc(C)cc2C)no1` . State its measured z-score.
stdout: 1.35

stdin: Consider the molecule `CCCNC(=O)OC[C@H]1O[C@H](CCON=C(C)C)C=C[C@@H]1Oc1ccc(OC)cc1` . State its measured z-score.
stdout: -0.551

stdin: Consider the molecule `Cn1c(=O)n2n(c1=O)[C@H]1[C@H](O)[C@@H]3O[C@@H]3C(=NOCc3ccccc3)[C@H]1CC2` . State its measured z-score.
stdout: -0.432

stdin: Consider the molecule COC(=O)[C@H](C)NC(=O)CCC1CC(OC(=O)NCc2ccc3c(c2)OCO3)CC2(CCCC(COC(=O)NCc3cccc(C(F)(F)F)c3)O2)O1 (stereo not given in full) . State its measured z-score.
stdout: 0.262

stdin: Consider the molecule `O=C1[C@H]2[C@H]3[C@H](O)[C@H](O)CC(=NOC[C@@H](O)COCc4ccco4)[C@H]3CC[C@H]2C(=O)N1Cc1ccccc1` . State its measured z-score.
stdout: -0.409

stdin: Consider the molecule `CC(CCN1CCc2nc(-c3ccccc3)c(-c3ccccc3)cc2C1)=NOC[C@@H](O)COCc1ccco1` . State its measured z-score.
stdout: 0.686

stdin: Consider the molecule `C#CCCCON=C1C[C@@H](O)[C@@H](O)[C@@H]2[C@@H]3C(=O)N(C(C)(C)C)C(=O)[C@@H]3CC[C@H]12` . State its measured z-score.
stdout: -0.342

stdin: Consider the molecule `CC(=O)OC[C@H]1O[C@@H](ON=C(C)CCN2CCCc3nc(C)c(C)cc32)[C@H](OC(C)=O)[C@@H](OC(C)=O)[C@@H]1OC(C)=O` . State its measured z-score.
stdout: 1.01

###

- assay-overview: E. coli DRC41 culture turbidity changes, primary screen, E. coli filamentation inducer project, strain DRC41, OD650, 48 h (AID 1152);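 further: E. coli MC1000 strain DRC41 lacking acrAB efflux pump and sulA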
- test-conditions: E. coli DRC41 (acrAB sulA), higher = more signal, called active from +8 up or from −8 down
Classification by z-score | ranges: bucket A (below -0.02), bucket B (-0.02 to below 0.3), bucket C (0.3 or more)

stdin: Which class is correct for the following compound? `CON=C(C)CCC(=O)OC[C@H]1O[C@H](c2ccccc2)C=C[C@@H]1Oc1ccc(OC)cc1`
stdout: bucket A

stdin: Which class is correct for the following compound? O=C1CCCC=C1C(CCc1ccccc1)OC(=O)c1ccc(Br)cc1 (stereo not given)
stdout: bucket A

stdin: Which class is correct for the following compound? O=C1CCCC=C1C(O)CCOC(c1ccccc1)(c1ccccc1)c1ccccc1 (stereo not given)
stdout: bucket A

stdin: Which class is correct for the following compound? CCOC(=O)[C@H](CC(C)C)NC(=O)CCC1CC(OC(=O)NCc2cccc3ccccc23)CC2(CCCC(COC(=O)NCCCN3CCCC3=O)O2)O1 (stereo not given in full)
stdout: bucket B

stdin: Which class is correct for the following compound? `COc1ccc(O[C@H]2C=C[C@@H](c3ccccc3)O[C@@H]2COC(=O)CCC(C)=NO[C@@H]2O[C@H](COC(C)=O)[C@@H](OC(C)=O)[C@H](OC(C)=O)[C@H]2OC(C)=O)cc1`
stdout: bucket C

stdin: Which class is correct for the following compound? `COC(=O)NCC=Cc1nc(CCCO)co1`
stdout: bucket B

stdin: Which class is correct for the following compound? `CCCNC(=O)OC[C@H]1O[C@H](CCON=Cc2ccc(C(=O)N3[C@H](c4ccc(C)cc4)[C@@H](C)CC[C@H]3C(=O)OC)cc2)C=C[C@@H]1Oc1ccc(OC)cc1`
stdout: bucket C

stdin: Which class is correct for the following compound? `CC(CCN1CCCCc2nc(C)c(C)cc21)=NOC[C@@H](O)COCc1ccco1`
stdout: bucket C

stdin: Which class is correct for the following compound? `O=C(NN=C1C[C@@H](O)[C@@H](O)[C@@H]2[C@@H]3C(=O)N(Cc4ccccc4)C(=O)[C@@H]3CC[C@@H]12)OCc1ccccc1`
stdout: bucket B

stdin: Which class is correct for the following compound? `COC(=O)CC=C[C@@H](C)[C@@H](C=NO[C@@H](C)c1cn([C@H](CO)Cc2ccccc2)nn1)NS(=O)(=O)c1ccc(C)cc1`
stdout: bucket B

###

- assay-overview: small-molecule binders of probe aLefty1, primary screen, biochemical, small-molecule microarray, 635/667 nm fluorescence (AID 1153);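 further: score merges spot fluorescence with signal-to-noise ratio from the scanned slide images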
- test-conditions: higher = more signal
Exercise: for every item that follows, state its recorded composite z-score.
Respond using a number only.

stdin: Consider the compound `CC(C)[C@@H](OCc1ccccc1)[C@H](C)C=NOC[C@@H](O)COCc1ccco1` . State its measured composite z-score.
stdout: -0.866

stdin: Consider the compound `COC(=O)NCC=Cc1nc(CCCO)co1` . State its measured composite z-score.
stdout: -0.164

stdin: Consider the compound CCOC(=O)[C@H](CC(C)C)NC(=O)CCC1CC(OC(=O)NCc2cccc3ccccc23)CC2(CCCC(COC(=O)NCCOC)O2)O1 (stereo partly drawn) . State its measured composite z-score.
stdout: -0.0559

stdin: Consider the compound `CON=C(C)CCC(=O)OC[C@H]1O[C@H](c2ccccc2)C=C[C@@H]1Oc1ccc(OC)cc1` . State its measured composite z-score.
stdout: -0.196

stdin: Consider the compound `CC(CCC(=O)OC[C@H]1O[C@H](C#Cc2ccccc2)C=C[C@@H]1Oc1ccc(C)cc1)=NO[C@H](C)c1cn([C@H](CO)Cc2ccccc2)nn1` . State its measured composite z-score.
stdout: -0.243

stdin: Consider the compound `COC(=O)CC=C[C@@H](C)[C@@H](C=NO[C@H](C)c1cn([C@H](CO)Cc2ccccc2)nn1)NS(=O)(=O)c1ccc(C)cc1` . State its measured composite z-score.
stdout: 0.173

stdin: Consider the compound `C#CCCCON=C1C[C@@H](O)[C@@H](O)[C@@H]2[C@@H]3C(=O)N(c4ccc(F)cc4F)C(=O)[C@@H]3CC[C@@H]12` . State its measured composite z-score.
stdout: -0.147

stdin: Consider the compound `COc1ccc(O[C@H]2C=C[C@@H](c3ccccc3)O[C@@H]2CON=C(C)CCN2CCc3nc(-c4ccccc4)c(-c4ccccc4)cc3C2)cc1` . State its measured composite z-score.
stdout: -0.101

###

- assay-overview: S. cerevisiae growth modulation with rapamycin, primary screen, strain BY4716, OD600, 96 h (AID 1091); further: test concentration not given here
- test-conditions: higher = more signal, called active from +8 up or from −8 down
Exercise: for every item that follows, state its recorded z-score.
Respond using a number only.

stdin: Consider the compound `Cc1ccc(S(=O)(=O)N[C@H]2COC(=O)CC=C[C@H](C)[C@@H](NS(=O)(=O)c3ccc(C)cc3)COC(=O)CC=C[C@@H]2C)cc1` . State its measured z-score.
stdout: 0.0667

stdin: Consider the compound `CCOC(=O)CCN1C(=O)[C@H]2[C@H]3[C@H](O)[C@H](O)CC(=NOCC(C)C)[C@H]3CC[C@H]2C1=O` . State its measured z-score.
stdout: 0.0797

stdin: Consider the compound `CC(C)CON=C1C[C@@H](O)[C@@H](O)[C@@H]2[C@@H]3C(=O)N(c4cccc(Oc5ccccc5)c4)C(=O)[C@@H]3CC[C@@H]12` . State its measured z-score.
stdout: -0.827

stdin: Consider the compound CCOC(=O)[C@H](Cc1ccccc1)NC(=O)CCC1CC(OC(=O)NCCc2ccc(F)cc2)CC2(CCCC(COC(=O)NCc3ccccc3)O2)O1 (some centres not stated) . State its measured z-score.
stdout: 0.6

stdin: Consider the compound `CO[C@H]1COC(=O)CCC[C@@H](C)[C@H](OC)COC(=O)[C@@H]2CCCN2C(=O)CC=C[C@@H]1C` . State its measured z-score.
stdout: -0.986

stdin: Consider the compound `C[C@@H](c1ccccc1)N1C(=O)[C@H]2[C@H]3[C@H](O)[C@H](O)CC(=NOCc4ccccc4)[C@H]3CC[C@H]2C1=O` . State its measured z-score.
stdout: 0.0942

stdin: Consider the compound `Cc1cc2c(nc1C)CCCN2CC(O)CN1CCCc2nc(C)c(C)cc21` . State its measured z-score.
stdout: -0.238

stdin: Consider the compound `CO[C@H]1COC(=O)CC=C[C@H](C)[C@@H](OC)COC(=O)[C@@H](C)COC(=O)CC=C[C@@H]1C` . State its measured z-score.
stdout: -0.487

stdin: Consider the compound `C=CC[C@@H]1C=C[C@H](ON=C(C)CCC(=O)OC[C@H]2O[C@H](c3ccccc3)C=C[C@@H]2Oc2ccc(OC)cc2)[C@@H](CO)O1` . State its measured z-score.
stdout: 0.261

stdin: Consider the compound `COC(=O)CC=C[C@@H](C)[C@@H](C=NOCC[C@@H]1C=C[C@H](OC(C)=O)[C@@H](COC(C)=O)O1)OC` . State its measured z-score.
stdout: 0.474

stdin: Consider the compound `O=C(NN=C1C[C@@H](O)[C@@H](O)[C@@H]2[C@@H]3C(=O)N(C[C@@H]4CCCO4)C(=O)[C@@H]3CC[C@H]12)OCc1ccccc1` . State its measured z-score.
stdout: -0.186

stdin: Consider the compound CCOC(=O)[C@H](Cc1ccccc1)NC(=O)CCC1CC(OC(=O)NCc2cccc3ccccc23)CC2(CCCC(COC(=O)NCc3cccc(C(F)(F)F)c3)O2)O1 (some centres not stated) . State its measured z-score.
stdout: 1.67

stdin: Consider the compound CCC1=NOC(CCC2CC(OC(=O)NCc3cccc4c3OCO4)CC3(CCCC(COC(=O)NCCc4ccccc4OC)O3)O2)C1 (configuration not stated) . State its measured z-score.
stdout: 0.327

stdin: Consider the compound COC(=O)[C@H](C)NC(=O)CCC1CC(OC(=O)NCCc2ccc(F)cc2)CC2(CCCC(COC(=O)NCCC(C)C)O2)O1 (some centres not stated) . State its measured z-score.
stdout: -0.104

stdin: Consider the compound `O=C(NN=C1C[C@@H](O)[C@@H](O)[C@@H]2[C@@H]3C(=O)N(C4CCCCC4)C(=O)[C@@H]3CC[C@H]12)OCc1ccccc1` . State its measured z-score.
stdout: 0.799

stdin: Consider the compound `CCO[C@H](c1cc(OC)cc([N+](=O)[O-])c1OC)[C@H](C)C=CCC(=O)OC` . State its measured z-score.
stdout: -0.187

stdin: Consider the compound `CC(C)=CCCC(C)=CCON=C1C[C@@H](O)[C@@H](O)[C@@H]2[C@@H]3C(=O)N(C[C@@H]4CCCO4)C(=O)[C@@H]3CC[C@H]12` . State its measured z-score.
stdout: 0.036
